Values were extracted from patent US8492588B2.

ASSAYED_TARGET: KCNQ2/3 heteromultimers (Rattus norvegicus, UniProt O88943+O88944)
Construct: endogenous in cells; no transfection is described
EXPERIMENTAL_DETAILS: Rubidium (Rb+) efflux test in PC-12 cells
CONDITION_DETAILS: NGF-differentiated PC-12 cells, depolarization buffer 15 mM KCl, 10 min
Experimental: Compounds of this invention formula were evaluated for activity toward potassium channels in a cell-based Rb^+ efflux assay. This cellular bioassay is believed to faithfully represent the M current channel activities identified with KCNQ2/3 heteromultimers. […] Additionally, antiseizure activity in vivo was evaluated in a mouse maximal electroshock seizure (MES) model, and neurotoxicities were determined from a rotorod neurocognitive motor impairment model. […]
PARAMETER: EC50

Below: 3 compounds and their reported EC50.
# MOL_SMILES, EC50
records = [
    ("Cc1cc(OCc2ccccc2C(F)(F)F)cc(C)c1NC(=O)CC(C)(C)C", "50 to 500 nM"),
    ("CCOC(=O)Nc1ccc(OCc2ccc(F)cc2)cc1C(F)(F)F", "50 to 500 nM"),
    ("Cc1cc(OCc2ccc(C(F)(F)F)cc2)cc(C)c1NC(=O)CC(C)(C)C", "10 to 50 nM"),
]

IN: Name the reported EC50 value associated with the compound "Cc1cc(OCc2ccc(F)c(F)c2)cc(C)c1NC(=O)CCC1CCCC1"
OUT: 1 to 10 nM

IN: Name the reported EC50 value associated with the compound "Cc1cc(OCc2cccc(F)c2)cc(C)c1NC(=O)CC(C)(C)C"
OUT: 10 to 50 nM

IN: Name the reported EC50 value associated with the compound "Cc1cc(OCc2ccc(F)cc2)cc(C)c1NC(=O)CCC1CCCC1"
OUT: 1 to 10 nM

IN: Name the reported EC50 value associated with the compound "Cc1cc(OCc2ccc(Cl)cc2)cc(C)c1NC(=O)CC(C)(C)C"
OUT: 10 to 50 nM

IN: Name the reported EC50 value associated with the compound "CCOC(=O)Nc1ccc(OCc2ccc(F)cc2)cc1F"
OUT: 50 to 500 nM

IN: Name the reported EC50 value associated with the compound "Cc1cc(OCc2ccc(Br)cc2)cc(C)c1NC(=O)CC(C)(C)C"
OUT: 10 to 50 nM

IN: Name the reported EC50 value associated with the compound "Cc1cc(OCc2ccc(F)cc2)cc(C)c1NC(=O)CC(C)(C)C"
OUT: 10 to 50 nM
